# key: entry, value: Potency EC50 (nM), ferroportin-GFP internalization/degradation
Molecular target: T1, human ferroportin (SLC40A1) fused in frame with GFP, stably expressed in HEK293 cells (human, UniProt Q9NP59 1-571)
T1 sequence (looked up): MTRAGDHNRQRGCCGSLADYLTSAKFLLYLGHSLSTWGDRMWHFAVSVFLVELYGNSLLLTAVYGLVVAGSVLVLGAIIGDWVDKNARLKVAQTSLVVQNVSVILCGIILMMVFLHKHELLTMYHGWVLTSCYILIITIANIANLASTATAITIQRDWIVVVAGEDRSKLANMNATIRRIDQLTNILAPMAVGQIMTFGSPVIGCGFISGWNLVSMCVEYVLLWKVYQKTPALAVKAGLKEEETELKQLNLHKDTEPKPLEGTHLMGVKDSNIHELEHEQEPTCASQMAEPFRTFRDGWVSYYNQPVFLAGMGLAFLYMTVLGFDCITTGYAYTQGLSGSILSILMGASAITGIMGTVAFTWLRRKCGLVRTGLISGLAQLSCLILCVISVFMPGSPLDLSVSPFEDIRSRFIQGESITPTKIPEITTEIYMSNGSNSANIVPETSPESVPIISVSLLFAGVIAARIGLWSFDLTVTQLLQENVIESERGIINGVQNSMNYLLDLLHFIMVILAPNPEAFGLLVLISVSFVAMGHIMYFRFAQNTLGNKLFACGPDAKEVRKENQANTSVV
Assay: cell-based or functional assay
Bridge positions count the residues as written; N and C are the ends.
Your answer is read as nM, so omit the unit and give the number.

BINDER	REPORTED MEASUREMENT
DTHFPCIKFKPRSKGWVC (not fully specified; N-terminal isovaleric acid; K(octanoic acid) at Lys 10; C-terminal amide) [Isovaleric acid-DTHFPCIKF-K(octanoic acid)-PRSKGWVC-NH2]	30

From here, focus on the item given below.
Note down Potency EC50 (nM), ferroportin-GFP internalization/degradation recorded for H-DTHFPICIFGPHRSKGWVCM-NH2 (disulfide 7-19 (inferred)) [Hy-DTHFPICIFGPHRSKGWVCM-NH2]
149
